- Test system: MAGI-CCR5 HeLa cells viability, MTS, 5% serum
- measurement_notes: cytotoxicity in MAGI-CCR5 cells, SAR follow-up, cytotoxicity control for HIV-1 antiviral lead project, cell-based, MTS, 5% and 10% serum (AID 2649)
Active and inactive are the calls of the source.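 How the source made its calls: active means lowest viability as percent of untreated cell control, measured with 5% serum, under 70% cytotoxic; inactive means the rest.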
Entry note: the call must match one of active, inactive

Look up the recorded call for O=C(N/N=C/c1c(O)n(C2CCCCC2)c(=S)[nH]c1=O)c1ccccc1O in this test.
inactive

Look up the recorded call for O=C(O)c1ccccc1N=Nc1c(O)[nH]c2ccc([N+](=O)[O-])cc12 in this test.
inactive

Look up the recorded call for CC(C)NC(=O)c1sc(=S)n2c1[nH]c(=O)c1ccc(C(=O)NCCc3ccc(Cl)cc3)cc12 in this test.
inactive

Look up the recorded call for N#C/C(=C\c1ccc(OCc2ccc(Cl)cc2)cc1)C(=O)Nc1cccc(C(=O)O)c1 in this test.
inactive

Look up the recorded call for Oc1c(Cl)cc(Cl)c(Cl)c1Cc1c(O)c(Cl)cc(Cl)c1Cl in this test.
active

Look up the recorded call for COc1cc(/C=N/NS(=O)(=O)c2ccc3ccccc3c2)ccc1OCc1ccc(C(=O)O)cc1 in this test.
inactive

Look up the recorded call for N#C/C(=C\c1ccc(O)c([N+](=O)[O-])c1)c1nc2ccccc2s1 in this test.
inactive

Look up the recorded call for CC(C)(C)c1cc(-c2csc(Nc3ccccc3)[n+]2Cc2ccc(C(=O)O)cc2)cc(C(C)(C)C)c1O in this test.
active

Look up the recorded call for CSc1nnc(-c2ccccc2N=Cc2c(C)[nH]n(-c3ccc4ccccc4c3)c2=O)c(=O)[nH]1 in this test.
inactive

Look up the recorded call for CCOC(=O)c1sc(N2C(=O)C(O)=C(C(=O)c3ccc(C)o3)C2c2cccc([N+](=O)[O-])c2)nc1C (configuration not stated) in this test.
inactive

Look up the recorded call for CCOc1cc(/C=C2\SC(=O)N(CC(=O)Nc3ccccc3F)C2=O)cc([N+](=O)[O-])c1O in this test.
inactive

Look up the recorded call for O=[N+]([O-])c1cc([N+](=O)[O-])c2oc(-c3ccccc3)c(Br)c2c1O in this test.
active

Look up the recorded call for Cc1c2c(=O)n(-c3nc4ccccc4s3)nc-2cc(O)n1Cc1ccccc1 in this test.
inactive

Look up the recorded call for CCC(Sc1nc2ccsc2c(=O)n1Cc1ccc(C(=O)O)cc1)C(=O)Nc1ccc(C)c(Cl)c1 (configuration not stated) in this test.
inactive

Look up the recorded call for COC(=O)c1sc(-c2ccc(C(C)(C)C)cc2)cc1NC(=O)c1ccccc1C(=O)O in this test.
active

Look up the recorded call for O=C(O)CCCN1C(=O)/C(=C/c2ccc(-c3nc4ccccc4s3)o2)SC1=S in this test.
inactive

Look up the recorded call for Cc1c(Cl)cccc1NS(=O)(=O)c1ccc2c(c1)C1C=CCC1C(c1ccc(C(=O)O)cc1)N2 (configuration not stated) in this test.
active
